- System: Escherichia coli TOP10
- procedure.details: shrunken log2 fold change of peptide-encoding DNA abundance (4.5 h post-induction vs induction); higher = less antimicrobial activity (less host growth inhibition)
- condition.set: time post-induction: 4.5 h; library: site-saturation at positions 5, 18, 19, 20
endpoint.name: shrunken log2 fold change

sequence_code=RRIRLRPPRLPRPRPRPYGGPRP endpoint_name="shrunken log2 fold change" observed=-0.0286
sequence_code=RRIRVRPPRLPRPRPRPHIEPRP endpoint_name="shrunken log2 fold change" observed=-0.763
sequence_code=RRIRKRPPRLPRPRPRPCSIPRP endpoint_name="shrunken log2 fold change" observed=0.11
sequence_code=RRIRERPPRLPRPRPRPWWAPRP endpoint_name="shrunken log2 fold change" observed=-0.0718
sequence_code=RRIRDRPPRLPRPRPRPHYDPRP endpoint_name="shrunken log2 fold change" observed=0.0428
sequence_code=RRIRSRPPRLPRPRPRPLEQPRP endpoint_name="shrunken log2 fold change" observed=0.0284
sequence_code=RRIRFRPPRLPRPRPRPNSPPRP endpoint_name="shrunken log2 fold change" observed=-0.462
sequence_code=RRIRKRPPRLPRPRPRPKALPRP endpoint_name="shrunken log2 fold change" observed=1.8
sequence_code=RRIRIRPPRLPRPRPRPKNQPRP endpoint_name="shrunken log2 fold change" observed=-0.359
sequence_code=RRIRVRPPRLPRPRPRPSETPRP endpoint_name="shrunken log2 fold change" observed=-0.14
sequence_code=RRIRYRPPRLPRPRPRPPKSPRP endpoint_name="shrunken log2 fold change" observed=-0.0324
sequence_code=RRIRERPPRLPRPRPRPGETPRP endpoint_name="shrunken log2 fold change" observed=0.0954
sequence_code=RRIRGRPPRLPRPRPRPDFTPRP endpoint_name="shrunken log2 fold change" observed=0.22
sequence_code=RRIRMRPPRLPRPRPRPLAVPRP endpoint_name="shrunken log2 fold change" observed=0.328
sequence_code=RRIRPRPPRLPRPRPRPWAQPRP endpoint_name="shrunken log2 fold change" observed=-0.00768

* * *

shrunken log2 fold change by entry:
- Test system: Escherichia coli TOP10;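 also: peptides expressed intracellularly from a pBAD plasmid library in pooled LB shake-flask culture, induced with 0.3% L-arabinose, DNA abundance read by NGS, three biological replicates, DESeq2 with apeglm shrinkage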
- procedure.details: shrunken log2 fold change of peptide-encoding DNA abundance (4.5 h post-induction vs induction); higher = less antimicrobial activity (less host growth inhibition)
- condition.set: time post-induction: 4.5 h; library: site-saturation at positions 5, 18, 19, 20
endpoint.name: shrunken log2 fold change

sequence_code=RRIRPRPPRLPRPRPRPYSHPRP observed=-1.42
sequence_code=RRIRPRPPRLPRPRPRPFKWPRP observed=0.0103
sequence_code=RRIRQRPPRLPRPRPRPFENPRP observed=-0.00804
sequence_code=RRIRMRPPRLPRPRPRPPVFPRP observed=0.704
sequence_code=RRIRDRPPRLPRPRPRPCSTPRP observed=0.248
sequence_code=RRIRLRPPRLPRPRPRPHEWPRP observed=-0.0141
sequence_code=RRIRNRPPRLPRPRPRPMGMPRP observed=-0.0761
sequence_code=RRIRARPPRLPRPRPRPPLPPRP observed=0.762
sequence_code=RRIRRRPPRLPRPRPRPLYGPRP observed=0.0447
sequence_code=RRIRKRPPRLPRPRPRPIHSPRP observed=-0.00784
sequence_code=RRIRDRPPRLPRPRPRPWPHPRP observed=-0.00987
sequence_code=RRIRQRPPRLPRPRPRPCKSPRP observed=0.00854
sequence_code=RRIRYRPPRLPRPRPRPAHSPRP observed=-0.0299
sequence_code=RRIRCRPPRLPRPRPRPAAFPRP observed=0.292
sequence_code=RRIRQRPPRLPRPRPRPQGTPRP observed=0.193
sequence_code=RRIRWRPPRLPRPRPRPWTQPRP observed=0.272
sequence_code=RRIRFRPPRLPRPRPRPHAYPRP observed=-0.118
sequence_code=RRIRNRPPRLPRPRPRPLGTPRP observed=0.135
sequence_code=RRIRPRPPRLPRPRPRPAHVPRP observed=0.0491
sequence_code=RRIRCRPPRLPRPRPRPNAYPRP observed=-0.502
sequence_code=RRIRSRPPRLPRPRPRPRHNPRP observed=-0.324
sequence_code=RRIRVRPPRLPRPRPRPELAPRP observed=0.659
sequence_code=RRIRVRPPRLPRPRPRPCYQPRP observed=-0.142
sequence_code=RRIRYRPPRLPRPRPRPEELPRP observed=-0.0326
sequence_code=RRIRFRPPRLPRPRPRPMPQPRP observed=-0.0791
sequence_code=RRIRDRPPRLPRPRPRPWKYPRP observed=-0.331
sequence_code=RRIRQRPPRLPRPRPRPSSWPRP observed=-0.0176
sequence_code=RRIRQRPPRLPRPRPRPYWIPRP observed=-0.152
sequence_code=RRIRPRPPRLPRPRPRPCLPPRP observed=0.0296
sequence_code=RRIRGRPPRLPRPRPRPRKLPRP observed=0.86
sequence_code=RRIRDRPPRLPRPRPRPQIGPRP observed=-0.00672
sequence_code=RRIRTRPPRLPRPRPRPFVPPRP observed=2.01
sequence_code=RRIRPRPPRLPRPRPRPVWAPRP observed=0.278
sequence_code=RRIRTRPPRLPRPRPRPWYAPRP observed=-0.521
sequence_code=RRIRPRPPRLPRPRPRPHQRPRP observed=-0.232
sequence_code=RRIRNRPPRLPRPRPRPQRFPRP observed=-0.155
sequence_code=RRIRWRPPRLPRPRPRPKHVPRP observed=0.254
sequence_code=RRIRNRPPRLPRPRPRPILTPRP observed=-0.135
sequence_code=RRIRSRPPRLPRPRPRPVRFPRP observed=0.488
sequence_code=RRIRLRPPRLPRPRPRPHPDPRP observed=-0.111
sequence_code=RRIRERPPRLPRPRPRPFSHPRP observed=-0.153
sequence_code=RRIRDRPPRLPRPRPRPELNPRP observed=1.04
sequence_code=RRIRDRPPRLPRPRPRPKNMPRP observed=-0.482
sequence_code=RRIRHRPPRLPRPRPRPHNQPRP observed=-0.521
sequence_code=RRIRCRPPRLPRPRPRPEWVPRP observed=0.293
sequence_code=RRIRFRPPRLPRPRPRPRGMPRP observed=0.2
sequence_code=RRIRCRPPRLPRPRPRPLRNPRP observed=0.272
sequence_code=RRIRQRPPRLPRPRPRPVEEPRP observed=-0.0284
sequence_code=RRIRFRPPRLPRPRPRPWKLPRP observed=-0.0164
sequence_code=RRIRTRPPRLPRPRPRPASLPRP observed=0.105
sequence_code=RRIRCRPPRLPRPRPRPCSGPRP observed=-0.513
sequence_code=RRIRMRPPRLPRPRPRPMGWPRP observed=0.808
sequence_code=RRIRPRPPRLPRPRPRPKHAPRP observed=0.824
sequence_code=RRIRDRPPRLPRPRPRPAMDPRP observed=0.335
sequence_code=RRIRTRPPRLPRPRPRPIRVPRP observed=-0.519
sequence_code=RRIRWRPPRLPRPRPRPQHCPRP observed=-0.115
sequence_code=RRIRPRPPRLPRPRPRPFGMPRP observed=-0.749
sequence_code=RRIRIRPPRLPRPRPRPLETPRP observed=-0.0471
sequence_code=RRIRMRPPRLPRPRPRPMVEPRP observed=0.0167
sequence_code=RRIRSRPPRLPRPRPRPHSAPRP observed=-0.891
sequence_code=RRIRMRPPRLPRPRPRPWRMPRP observed=0.0682
sequence_code=RRIRDRPPRLPRPRPRPYLAPRP observed=-0.0552
sequence_code=RRIRDRPPRLPRPRPRPWYTPRP observed=-0.0848
